assay system: Aryl hydrocarbon receptor (Homo sapiens)
measurement protocol: qHTS assay to identify small molecule that activate the aryl hydrocarbon receptor (AhR) signaling pathway (AID 743085); note: nearly all actives have a fitted effect of over 15% in size;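 for activation: HG2L7.5c1 human HepG2 liver cells with stably integrated DRE-driven firefly reporter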
measurement context: HepG2 AhR-luc (HG2L7.5c1), luciferase, 24 h; series mostly up to 70.3 µM
Records with an inconclusive call do not appear. The source made the active and inactive calls. Calls come from the whole dose curve; as a rule, active = well fitted activation curve with a large enough effect in the repeat runs; inconclusive = weak or mixed curves; inactive = no such curve, though single readings can be large or run the other way.
A correct response names exactly one class from true (active), false (inactive)

Here are 2 compounds together with their reported answers.
> print(dat)
                                molecule                              assay.system  label.value
1      Cc1ccc2cc3c(ccc4ccccc43)c3c2c1CC3  Aryl hydrocarbon receptor (Homo sapiens)         true
2  COP(=S)(OC)Oc1ccc([N+](=O)[O-])c(C)c1  Aryl hydrocarbon receptor (Homo sapiens)         true

input: // param item: `[F][Sn]([c]1ccccc1)([c]1ccccc1)[c]1ccccc1` ; yields the recorded call
output: false
